biological target: B. subtilis RNAP (Bacillus subtilis, UniProt P37870+P37871); construct: endogenous in cells; host or cells: Bacillus subtilis strain PL37 (built from strain 168); test: Dual reporter assay in strain PL37: test reporter Pxyl-lacZ and ratio of control to test reporter (RES:MUG); format: cell-based; settings: strain PL37; Dilution Number 8; DMSO control […]
Sequence (P37871 whole entry): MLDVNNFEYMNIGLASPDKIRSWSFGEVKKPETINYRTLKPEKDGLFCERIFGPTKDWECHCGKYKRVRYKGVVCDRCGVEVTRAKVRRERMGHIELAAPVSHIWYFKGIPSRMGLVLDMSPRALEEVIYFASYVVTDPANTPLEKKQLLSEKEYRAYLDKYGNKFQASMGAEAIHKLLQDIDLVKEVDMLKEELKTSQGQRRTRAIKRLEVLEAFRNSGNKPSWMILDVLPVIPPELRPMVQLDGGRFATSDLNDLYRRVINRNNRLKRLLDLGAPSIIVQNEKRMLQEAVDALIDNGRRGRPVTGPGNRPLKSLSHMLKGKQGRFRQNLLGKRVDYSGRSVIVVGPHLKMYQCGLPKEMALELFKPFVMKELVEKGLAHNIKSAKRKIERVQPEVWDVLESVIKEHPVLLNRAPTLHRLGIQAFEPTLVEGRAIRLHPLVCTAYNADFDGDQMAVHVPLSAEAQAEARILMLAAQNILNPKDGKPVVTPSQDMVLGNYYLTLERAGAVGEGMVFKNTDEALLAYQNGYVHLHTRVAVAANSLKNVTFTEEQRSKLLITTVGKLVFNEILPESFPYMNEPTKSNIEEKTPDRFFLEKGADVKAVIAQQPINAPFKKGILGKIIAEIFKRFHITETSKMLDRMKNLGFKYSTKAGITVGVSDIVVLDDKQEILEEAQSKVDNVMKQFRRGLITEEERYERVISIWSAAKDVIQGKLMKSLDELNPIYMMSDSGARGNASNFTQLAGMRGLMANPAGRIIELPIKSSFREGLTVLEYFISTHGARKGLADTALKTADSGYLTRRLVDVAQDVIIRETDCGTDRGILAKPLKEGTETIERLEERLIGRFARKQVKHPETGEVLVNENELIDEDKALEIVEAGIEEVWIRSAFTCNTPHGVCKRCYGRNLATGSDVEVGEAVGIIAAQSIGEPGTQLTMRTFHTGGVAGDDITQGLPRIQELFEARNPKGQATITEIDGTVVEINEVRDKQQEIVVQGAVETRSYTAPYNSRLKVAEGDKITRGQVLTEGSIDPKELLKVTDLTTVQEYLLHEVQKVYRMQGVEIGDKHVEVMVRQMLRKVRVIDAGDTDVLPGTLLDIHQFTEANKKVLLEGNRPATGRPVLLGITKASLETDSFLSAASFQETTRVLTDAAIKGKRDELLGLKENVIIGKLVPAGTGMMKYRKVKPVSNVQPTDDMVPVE
Sequence (P20429 whole entry, further chain): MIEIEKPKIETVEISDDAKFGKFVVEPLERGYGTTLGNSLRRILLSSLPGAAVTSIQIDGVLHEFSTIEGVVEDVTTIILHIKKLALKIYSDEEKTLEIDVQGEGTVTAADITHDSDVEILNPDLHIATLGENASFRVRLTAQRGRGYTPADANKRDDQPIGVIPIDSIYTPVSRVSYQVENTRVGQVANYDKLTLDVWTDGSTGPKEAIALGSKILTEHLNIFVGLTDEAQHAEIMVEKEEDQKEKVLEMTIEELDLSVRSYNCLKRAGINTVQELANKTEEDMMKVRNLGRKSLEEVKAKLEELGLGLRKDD
Sequence (O35011 whole entry, further chain): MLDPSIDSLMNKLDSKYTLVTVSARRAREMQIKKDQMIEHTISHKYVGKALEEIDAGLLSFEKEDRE
Sequence (P37870 whole entry): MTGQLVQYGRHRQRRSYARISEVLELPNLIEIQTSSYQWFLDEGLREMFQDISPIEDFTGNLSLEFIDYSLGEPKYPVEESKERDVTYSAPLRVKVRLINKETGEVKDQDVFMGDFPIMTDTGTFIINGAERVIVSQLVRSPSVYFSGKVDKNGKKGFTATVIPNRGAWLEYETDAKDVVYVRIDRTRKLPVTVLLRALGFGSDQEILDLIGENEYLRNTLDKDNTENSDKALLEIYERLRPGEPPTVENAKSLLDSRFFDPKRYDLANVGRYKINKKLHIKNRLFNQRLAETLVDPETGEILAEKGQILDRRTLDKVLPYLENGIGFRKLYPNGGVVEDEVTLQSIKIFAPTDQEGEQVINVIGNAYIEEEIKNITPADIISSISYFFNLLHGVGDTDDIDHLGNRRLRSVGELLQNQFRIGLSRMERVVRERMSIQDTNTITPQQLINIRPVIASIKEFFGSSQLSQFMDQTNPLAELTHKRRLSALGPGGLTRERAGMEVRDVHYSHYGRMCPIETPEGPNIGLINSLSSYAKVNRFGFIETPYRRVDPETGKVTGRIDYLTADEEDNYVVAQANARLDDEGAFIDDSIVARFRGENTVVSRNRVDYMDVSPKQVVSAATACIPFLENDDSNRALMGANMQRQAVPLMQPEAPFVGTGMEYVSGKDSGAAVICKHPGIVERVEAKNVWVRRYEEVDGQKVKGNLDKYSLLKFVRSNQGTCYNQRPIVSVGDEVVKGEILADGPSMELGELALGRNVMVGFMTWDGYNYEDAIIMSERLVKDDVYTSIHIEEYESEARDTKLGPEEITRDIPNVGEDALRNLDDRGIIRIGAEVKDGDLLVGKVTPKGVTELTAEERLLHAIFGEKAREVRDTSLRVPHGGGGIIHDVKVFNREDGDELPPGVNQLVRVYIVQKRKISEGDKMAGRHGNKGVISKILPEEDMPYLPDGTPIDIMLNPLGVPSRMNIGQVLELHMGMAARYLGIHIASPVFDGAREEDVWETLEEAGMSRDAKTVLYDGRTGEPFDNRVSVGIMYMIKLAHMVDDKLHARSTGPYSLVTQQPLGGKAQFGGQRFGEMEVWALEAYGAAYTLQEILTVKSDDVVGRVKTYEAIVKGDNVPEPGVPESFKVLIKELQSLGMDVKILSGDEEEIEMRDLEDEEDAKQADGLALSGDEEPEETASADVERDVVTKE
experimentalReadout: Ratio of the control reporter (RES): test reporter (MUG)

INSERT INTO results (molecule, measuredtarget, reportedresult) VALUES
  ('CN[C@@H]1[C@H](O)[C@H](NC)[C@H]2O[C@@]3(O)C(=O)C[C@@H](C)O[C@H]3O[C@@H]2[C@H]1O [Spectinomycin]', 'B. subtilis RNAP (Bacillus subtilis, UniProt P37870+P37871)', 1.10),
  ('CCn1cc(C(=O)O)c(=O)c2ccc(C)nc21 [Nalidixic Acid]', 'B. subtilis RNAP (Bacillus subtilis, UniProt P37870+P37871)', 1.25),
  ('CC1(C)S[C@@H]2[C@H](NC(=O)Cc3ccccc3)C(=O)N2[C@H]1C(=O)O [Penicillin G]', 'B. subtilis RNAP (Bacillus subtilis, UniProt P37870+P37871)', 1.64),
  ('CCn1cc(C(=O)O)c(=O)c2cc3c(cc21)OCO3 [Oxolinic Acid]', 'B. subtilis RNAP (Bacillus subtilis, UniProt P37870+P37871)', 1.06),
  ('CN[C@H](CC(C)C)C(=O)N[C@H]1C(=O)N[C@@H](CC(N)=O)C(=O)N[C@H]2C(=O)N[C@H]3C(=O)N[C@H](C(=O)N[C@H](C(=O)O)c4cc(O)cc(O)c4-c4cc3ccc4O)[C@H](O)c3ccc(c(Cl)c3)Oc3cc2cc(c3O[C@@H]2O[C@H](CO)[C@@H](O)[C@H](O)[C@H]2O[C@H]2C[C@](C)(N)[C@H](O)[C@H](C)O2)Oc2ccc(cc2Cl)[C@H]1O [Vancomycin]', 'B. subtilis RNAP (Bacillus subtilis, UniProt P37870+P37871)', 1.04),
  ('CNC(=O)[C@@H](C)[C@H]1C(=O)/C(=C(O)/C=C/C(C)=C/[C@@H](C)[C@H]2O[C@@]3(C)O[C@H](C=C[C@@]34CO4)[C@@H]2C)C(=O)N1[C@@H]1CC[C@H](O)[C@H](C)O1 [Streptolydigin]', 'B. subtilis RNAP (Bacillus subtilis, UniProt P37870+P37871)', 1.41),
  ('CC(O)C(=O)O.COc1cc(Cc2cnc(N)nc2N)cc(OC)c1OC [Trimethoprim Lactate]', 'B. subtilis RNAP (Bacillus subtilis, UniProt P37870+P37871)', 0.65),
  ('CC[C@@]1([C@@H]2O[C@@H]([C@H]3O[C@@](O)(CO)[C@H](C)C[C@@H]3C)C[C@@H]2C)CC[C@H]([C@]2(C)CC[C@]3(C[C@H](O)[C@@H](C)[C@@H]([C@@H](C)[C@@H](OC)[C@H](C)C(=O)O)O3)O2)O1 [Monensin]', 'B. subtilis RNAP (Bacillus subtilis, UniProt P37870+P37871)', 1.74),
  ('CC[C@H]1OC(=O)[C@H](C)[C@@H](O[C@H]2C[C@@](C)(OC)[C@@H](O)[C@H](C)O2)[C@H](C)[C@@H](O[C@@H]2O[C@H](C)C[C@H](N(C)C)[C@H]2O)[C@](C)(O)C[C@@H](C)C(=O)[C@H](C)[C@@H](O)[C@]1(C)O [Erythromycin]', 'B. subtilis RNAP (Bacillus subtilis, UniProt P37870+P37871)', 1.71);

The reported measurements were obtained from patent US20040072206A1.
